- Tested on: PPARg:RXRa 30nM:10nM, anti-RXR (NR concentration 30 nM, RXRa partner concentration 10 nM)
- METHOD: PBM binding z-score (relative to random genomic background probes); higher = stronger binding; sequences stand for … in GC…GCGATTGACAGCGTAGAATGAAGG
Consider the following sequences and their measured PBM binding z-score readings.
QUANTITY KIND: PBM binding z-score

[[record]]
sequence_record = "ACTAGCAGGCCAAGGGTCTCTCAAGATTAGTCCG"
quantity_kind = "PBM binding z-score"
endpoint_result = 2.15

[[record]]
sequence_record = "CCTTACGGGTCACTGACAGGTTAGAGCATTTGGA"
quantity_kind = "PBM binding z-score"
endpoint_result = 1.58

[[record]]
sequence_record = "GCTCGGCGGACAAGGTCAGAGCTTTGTCCGTAGA"
quantity_kind = "PBM binding z-score"
endpoint_result = -0.807

[[record]]
sequence_record = "TAGCCTAGGTCATGGGCCGGTATACCACGCGAAC"
quantity_kind = "PBM binding z-score"
endpoint_result = 0.856

[[record]]
sequence_record = "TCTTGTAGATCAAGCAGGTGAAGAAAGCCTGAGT"
quantity_kind = "PBM binding z-score"
endpoint_result = 2.61

[[record]]
sequence_record = "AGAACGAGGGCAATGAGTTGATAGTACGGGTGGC"
quantity_kind = "PBM binding z-score"
endpoint_result = 0.0705

[[record]]
sequence_record = "ATATGTAGGTTATCGGGTCATTCAATTTGCGCAT"
quantity_kind = "PBM binding z-score"
endpoint_result = 3.98

[[record]]
sequence_record = "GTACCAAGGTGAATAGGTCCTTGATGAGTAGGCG"
quantity_kind = "PBM binding z-score"
endpoint_result = 0.0599

[[record]]
sequence_record = "AGAATGAGGTTAAGATCAAGGAAACAGAATACAT"
quantity_kind = "PBM binding z-score"
endpoint_result = 0.939

[[record]]
sequence_record = "TCATATAGGTAAAAGGTGAGAGTCGGTGTGGTAA"
quantity_kind = "PBM binding z-score"
endpoint_result = 7.77

[[record]]
sequence_record = "AGAATGAGGTTGTTAAGATCAGGGAATTGCGGTC"
quantity_kind = "PBM binding z-score"
endpoint_result = -0.197

[[record]]
sequence_record = "CTGACTGGGGCATAAGGTTACCATAAGCCAGCCC"
quantity_kind = "PBM binding z-score"
endpoint_result = 2.16

[[record]]
sequence_record = "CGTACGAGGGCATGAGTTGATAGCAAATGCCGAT"
quantity_kind = "PBM binding z-score"
endpoint_result = 0.157

[[record]]
sequence_record = "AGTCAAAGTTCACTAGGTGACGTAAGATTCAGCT"
quantity_kind = "PBM binding z-score"
endpoint_result = 3.81

[[record]]
sequence_record = "CCGACTAGGGCATAAGGTTACCATAAGCCAGCCC"
quantity_kind = "PBM binding z-score"
endpoint_result = 1.43

[[record]]
sequence_record = "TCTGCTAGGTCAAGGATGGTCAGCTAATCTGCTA"
quantity_kind = "PBM binding z-score"
endpoint_result = 2.02

[[record]]
sequence_record = "CCCACTGGGCCAAAAAGGTCATTGATGCCGATAA"
quantity_kind = "PBM binding z-score"
endpoint_result = 1.38

[[record]]
sequence_record = "ATCGAAAGGTCGCGAGGTGAGTATACAGAAAGGC"
quantity_kind = "PBM binding z-score"
endpoint_result = 1.89

[[record]]
sequence_record = "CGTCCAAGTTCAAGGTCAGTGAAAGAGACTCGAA"
quantity_kind = "PBM binding z-score"
endpoint_result = 0.198

[[record]]
sequence_record = "CGTCCAAGGTCATAGGAGGTCAGTTAAGACAGAT"
quantity_kind = "PBM binding z-score"
endpoint_result = 2.29

[[record]]
sequence_record = "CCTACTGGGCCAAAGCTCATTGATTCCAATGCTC"
quantity_kind = "PBM binding z-score"
endpoint_result = 2.45

[[record]]
sequence_record = "TCGAGCAGGCCAGAGGGTCACTCAAGAGGTACGG"
quantity_kind = "PBM binding z-score"
endpoint_result = 0.223

[[record]]
sequence_record = "TCTATTAGTTGATTAGCGCAACCGAAACAGCGGA"
quantity_kind = "PBM binding z-score"
endpoint_result = 3.89

[[record]]
sequence_record = "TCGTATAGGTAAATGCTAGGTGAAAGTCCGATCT"
quantity_kind = "PBM binding z-score"
endpoint_result = 3.04

[[record]]
sequence_record = "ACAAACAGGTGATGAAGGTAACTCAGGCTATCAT"
quantity_kind = "PBM binding z-score"
endpoint_result = 0.363

[[record]]
sequence_record = "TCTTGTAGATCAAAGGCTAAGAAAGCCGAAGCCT"
quantity_kind = "PBM binding z-score"
endpoint_result = 4.4

[[record]]
sequence_record = "ACAATGAGGTTAAGATCAGGGAAACAGAATACAT"
quantity_kind = "PBM binding z-score"
endpoint_result = 0.802

[[record]]
sequence_record = "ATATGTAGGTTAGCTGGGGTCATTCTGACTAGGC"
quantity_kind = "PBM binding z-score"
endpoint_result = 2.82

[[record]]
sequence_record = "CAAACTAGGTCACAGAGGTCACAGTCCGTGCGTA"
quantity_kind = "PBM binding z-score"
endpoint_result = 6.43

[[record]]
sequence_record = "GGAACGAGGGCATTTGAGTTGATAGCATGGCGAT"
quantity_kind = "PBM binding z-score"
endpoint_result = -0.0141

[[record]]
sequence_record = "GCTTACGGGTCAAAGGTTATAGCTTGAATAGAAT"
quantity_kind = "PBM binding z-score"
endpoint_result = 8.76

[[record]]
sequence_record = "ACTCGGAGAACAAAGGTCAGAGCTACGCCAGTGA"
quantity_kind = "PBM binding z-score"
endpoint_result = 4.63

[[record]]
sequence_record = "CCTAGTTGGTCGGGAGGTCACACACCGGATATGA"
quantity_kind = "PBM binding z-score"
endpoint_result = 0.776

[[record]]
sequence_record = "CGAACTAGGTCATTAACAGGACAGTGAATAGTAA"
quantity_kind = "PBM binding z-score"
endpoint_result = 3.43

[[record]]
sequence_record = "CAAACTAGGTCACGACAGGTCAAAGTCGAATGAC"
quantity_kind = "PBM binding z-score"
endpoint_result = 6.54

[[record]]
sequence_record = "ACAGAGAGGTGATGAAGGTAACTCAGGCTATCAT"
quantity_kind = "PBM binding z-score"
endpoint_result = 0.188

[[record]]
sequence_record = "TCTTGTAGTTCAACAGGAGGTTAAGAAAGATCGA"
quantity_kind = "PBM binding z-score"
endpoint_result = 2.29

[[record]]
sequence_record = "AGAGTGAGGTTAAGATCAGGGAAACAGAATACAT"
quantity_kind = "PBM binding z-score"
endpoint_result = 0.952

[[record]]
sequence_record = "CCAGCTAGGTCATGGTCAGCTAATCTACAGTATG"
quantity_kind = "PBM binding z-score"
endpoint_result = 0.995

[[record]]
sequence_record = "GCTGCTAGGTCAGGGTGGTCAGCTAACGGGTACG"
quantity_kind = "PBM binding z-score"
endpoint_result = -0.181

[[record]]
sequence_record = "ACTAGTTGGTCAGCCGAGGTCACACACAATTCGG"
quantity_kind = "PBM binding z-score"
endpoint_result = 0.926

[[record]]
sequence_record = "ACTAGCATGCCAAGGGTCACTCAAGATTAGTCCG"
quantity_kind = "PBM binding z-score"
endpoint_result = 3.82

[[record]]
sequence_record = "TCTGCAAGGTCAACGATGGTCAGCTAATCTGCTA"
quantity_kind = "PBM binding z-score"
endpoint_result = 2.86

[[record]]
sequence_record = "CCTCACGGGTCAAGGTTATAGCACGGGTGGTACG"
quantity_kind = "PBM binding z-score"
endpoint_result = 0.731

[[record]]
sequence_record = "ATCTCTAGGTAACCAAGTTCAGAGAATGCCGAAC"
quantity_kind = "PBM binding z-score"
endpoint_result = -0.0566

[[record]]
sequence_record = "CCGACTGGGGCATAATGTTACCATAAGCCAGCCC"
quantity_kind = "PBM binding z-score"
endpoint_result = -0.289

[[record]]
sequence_record = "GGAGACAGGTGAAACGCAGGTAACTCAGGGTGGC"
quantity_kind = "PBM binding z-score"
endpoint_result = -0.768

[[record]]
sequence_record = "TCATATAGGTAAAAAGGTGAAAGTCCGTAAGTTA"
quantity_kind = "PBM binding z-score"
endpoint_result = 5.01

[[record]]
sequence_record = "CCGACTGGGGTAAAGGTTACCATACTCAGTACGA"
quantity_kind = "PBM binding z-score"
endpoint_result = 8.82

[[record]]
sequence_record = "AGAACGAGGGCGCGCTGAGTTGATAGCAGAGTAG"
quantity_kind = "PBM binding z-score"
endpoint_result = -0.293

[[record]]
sequence_record = "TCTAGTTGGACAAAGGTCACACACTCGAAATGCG"
quantity_kind = "PBM binding z-score"
endpoint_result = 9.32


Values compiled from the supplement of paper PMC6555819.
